Assay: chemical genetic growth profiling, strain panel (AID 1159580);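 further: tested at 20 µM; growth read once vehicle control cultures reached saturation at 30 °C; 1 = growth at the plate median or of vehicle wells; lower values mean less growth of the strain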
Conditions: S. cerevisiae deletion strains, growth OD, locus YNL175C, strain NOP13
The campaign covered roughly 5,500 compounds. About 2,000 (36%) were called active. Another 18% or so got no clear call; they are omitted. No stated cut-off is given here; in the data, active means normalized growth mostly below about 0.91 (no sharp cut-off); inconclusive means no clear call, values can overlap the other calls; inactive means mostly above about 0.92. This is one part of the list.
Choose one outcome from this list and give only that: true (1) for active, false (0) for inactive

COMPOUND	CAT
c1ccc2c(c1)[I+]c1ccccc1-2	false (0)
CC(=O)[C@H]1CCC2C3CC[C@H]4C[C@H](O)CC[C@]4(C)C3CC[C@@]21C (some centres undefined)	false (0)
Clc1cnc(Oc2ccc(Oc3ncc(Cl)cc3Cl)cc2)c(Cl)c1	false (0)
Clc1ccc(C(c2ccc(Cl)cc2)n2cc[n+](CC(OCc3ccc(Cl)cc3Cl)c3ccc(Cl)cc3Cl)c2)cc1 (centres undefined)	true (1)
NC(N)=NCCCCN=C(N)N	false (0)
NCCC1CCCC(CCN)N1 (centres undefined)	false (0)
CCCN1CCC[C@@H]2Cc3[nH]ncc3C[C@H]21	false (0)
NCCCCNCCCN	false (0)
Cc1nc(-c2ccc(-c3ccc(C(=O)N4CCc5cc6c(cc54)C4(CCN(C)CC4)CO6)cc3)c(C)c2)no1	false (0)
CN1CCCC1CCOC(C)(c1ccccc1)c1ccc(Cl)cc1 (centres undefined)	false (0)

Given `CCCc1c(-c2ccc(O)cc2)nn(-c2ccc(O)cc2)c1-c1ccc(O)cc1` , state the outcome it received in this test.
false (0)

Given `O=C1CCCN1CC#CCN1CCCC1` , state the outcome it received in this test.
false (0)
